Where do the numbers come from? From the supplement of paper PMC10883282.

Test system: VA-ES-BJ
Experiment: relative viability vs DMSO control (72 h) (fraction); higher = more viable cells
Settings: 0.04115 µM
Counter-ions that a name gives are not always drawn.
Documented relative viability across a set of compounds
property_label: relative viability

* COc1cc2/c(=N/c3ccc(Br)cc3F)nc[nH]c2cc1OCC1CCN(C)CC1 | 1.1
* COc1cccc2c1C(=O)c1c(O)c3c(c(O)c1C2=O)C[C@@](O)(C(=O)CO)C[C@@H]3O[C@H]1C[C@H](N)[C@H](O)[C@H](C)O1 [Doxorubicin Hydrochloride] | 0.629
* C=CC(=O)Nc1cccc(Oc2nc(Nc3ccc(N4CCN(C)CC4)cc3)nc3ccsc23)c1 | 1
* Nc1cc(C(F)(F)F)c(-c2cc(N3CCOCC3)nc(N3CCOCC3)n2)cn1 | 0.983
